Test: Antiproliferative activity against human WSU HN-30 cells assessed as inhibition rate at 0.1 uM incubated for 72 hrs by MTT assay relative to control
Type: functional
Conditions: WSU-HN30
Listing of recorded inhibition at 0.1 µM by entry.
Property: inhibition at 0.1 µM (%)

# Compound, Value units, Value measured
rows = [
    ("COc1cc2c(OCCOCCNC(=O)C(F)(F)[C@]3(O)O[C@H](CO)[C@@H](O)[C@H](O)[C@H]3O)c3c(c(-c4ccc5c(c4)OCO5)c2cc1OC)C(=O)OC3", "%", 8.25),
    ("COc1cc2c(OCCOCCNC(=O)[C@@H]3CCC(=O)N3)c3c(c(-c4ccc5c(c4)OCO5)c2cc1OC)C(=O)OC3", "%", 15.9),
    ("COc1cc2c(O[C@@H]3O[C@@H]4CO[C@@H](c5csc(Br)c5)O[C@H]4[C@H](O)[C@H]3O)c3c(c(-c4ccc5c(c4)OCO5)c2cc1OC)C(=O)OC3", "%", 49.9),
    ("COc1cc2c(O[C@@H]3O[C@@H]4CO[C@@H](c5ccsc5)O[C@H]4[C@H](OC(C)=O)[C@H]3OC(C)=O)c3c(c(-c4ccc5c(c4)OCO5)c2cc1OC)C(=O)OC3", "%", 49.4),
    ("COc1cc2c(O)c3c(c(-c4ccc5c(c4)OCO5)c2cc1OC)C(=O)OC3 [DIPHYLLIN]", "%", 9.52),
    ("COc1cc2c(OCCN)c3c(c(-c4ccc5c(c4)OCO5)c2cc1OC)C(=O)OC3", "%", 18.9),
]

---

Listing of recorded bioavailability by entry.
Assay: Oral bioavailability in ICR mouse at 3 mg/kg measured upto 24 hrs by LC-MS/MS analysis
Type: ADME, organism-based
Conditions: in vivo

# Structure notation, bioavailability, %
data = [
    ("COc1cc2c(O)c3c(c(-c4ccc5c(c4)OCO5)c2cc1OC)C(=O)OC3", 2.7),
    ("COc1cc2c(O[C@@H]3O[C@@H]4CO[C@@H](c5ccsc5)O[C@H]4[C@H](O)[C@H]3O)c3c(c(-c4ccc5c(c4)OCO5)c2cc1OC)C(=O)OC3", 20.9),
]

---

Test: Cytotoxicity against human […] incubated for 72 hrs by MTT assay
Type: functional, cell-based
Conditions: WSU-HN30, 72 h
We label by threshold. Values of IC50 strictly beneath 100 nM are rule met. Values of 100 nM and up are rule not met.

# Compound, Group label
data = [
    ("COc1cc2c(OCCOCCN)c3c(c(-c4ccc5c(c4)OCO5)c2cc1OC)C(=O)OC3", "rule not met"),
    ("COc1cc2c(O[C@@H]3O[C@@H]4CO[C@@H](c5csc(Br)c5)O[C@H]4[C@H](O)[C@H]3O)c3c(c(-c4ccc5c(c4)OCO5)c2cc1OC)C(=O)OC3", "rule met"),
    ("COc1cc2c(O[C@@H]3O[C@@H]4CO[C@@H](c5ccco5)O[C@H]4[C@H](O)[C@H]3O)c3c(c(-c4ccc5c(c4)OCO5)c2cc1OC)C(=O)OC3", "rule not met"),
    ("COc1cc2c(O[C@@H]3O[C@@H]4CO[C@@H](C5CCCCC5)O[C@H]4[C@H](O)[C@H]3O)c3c(c(-c4ccc5c(c4)OCO5)c2cc1OC)C(=O)OC3", "rule met"),
    ("COc1cc2c(O[C@@H]3O[C@@H]4CO[C@@H](c5cccs5)O[C@H]4[C@H](O)[C@H]3O)c3c(c(-c4ccc5c(c4)OCO5)c2cc1OC)C(=O)OC3", "rule not met"),
    ("COc1cc2c(O)c3c(c(-c4ccc5c(c4)OCO5)c2cc1OC)C(=O)OC3", "rule not met"),
    ("COc1cc2c(OCCOCCOCCN)c3c(c(-c4ccc5c(c4)OCO5)c2cc1OC)C(=O)OC3", "rule not met"),
    ("COc1cc2c(O[C@@H]3O[C@@H]4CO[C@@H](c5ccsc5)O[C@H]4[C@H](O)[C@H]3O)c3c(c(-c4ccc5c(c4)OCO5)c2cc1OC)C(=O)OC3", "rule met"),
    ("COc1cc2c(O[C@@H]3O[C@@H]4CO[C@@H](c5ccsc5)O[C@H]4[C@H](OC(C)=O)[C@H]3OC(C)=O)c3c(c(-c4ccc5c(c4)OCO5)c2cc1OC)C(=O)OC3", "rule met"),
    ("COc1cc([C@@H]2c3cc4c(cc3[C@@H](O[C@@H]3O[C@@H]5CO[C@@H](C)O[C@H]5[C@H](O)[C@H]3O)[C@H]3COC(=O)[C@H]23)OCO4)cc(OC)c1O [ETOPOSIDE]", "rule not met"),
]

---

Experiment: Cytotoxicity against human HN-6 cells incubated for 72 hrs by MTT assay
Format: functional, cell-based
Conditions: HN-6, 72 h
We label by threshold. Values of IC50 strictly beneath 90 nM are rule met. Values of 90 nM and up are rule not met.

# Molecule, Group label
records = [
    ("COc1cc2c(O[C@@H]3O[C@@H]4CO[C@@H](c5cccs5)O[C@H]4[C@H](O)[C@H]3O)c3c(c(-c4ccc5c(c4)OCO5)c2cc1OC)C(=O)OC3", "rule met"),
    ("COc1cc2c(O[C@@H]3O[C@@H]4CO[C@@H](c5ccsc5)O[C@H]4[C@H](O)[C@H]3O)c3c(c(-c4ccc5c(c4)OCO5)c2cc1OC)C(=O)OC3", "rule met"),
    ("COc1cc2c(OCCOCCOCCN)c3c(c(-c4ccc5c(c4)OCO5)c2cc1OC)C(=O)OC3", "rule not met"),
    ("COc1cc([C@@H]2c3cc4c(cc3[C@@H](O[C@@H]3O[C@@H]5CO[C@@H](C)O[C@H]5[C@H](O)[C@H]3O)[C@H]3COC(=O)[C@H]23)OCO4)cc(OC)c1O [ETOPOSIDE]", "rule not met"),
    ("COc1cc2c(OCCOCCN)c3c(c(-c4ccc5c(c4)OCO5)c2cc1OC)C(=O)OC3", "rule not met"),
    ("COc1cc2c(O[C@@H]3O[C@@H]4CO[C@@H](c5ccco5)O[C@H]4[C@H](O)[C@H]3O)c3c(c(-c4ccc5c(c4)OCO5)c2cc1OC)C(=O)OC3", "rule met"),
    ("COc1cc2c(O[C@@H]3O[C@@H]4CO[C@@H](c5csc(Br)c5)O[C@H]4[C@H](O)[C@H]3O)c3c(c(-c4ccc5c(c4)OCO5)c2cc1OC)C(=O)OC3", "rule met"),
]

---

Test: Antiproliferative activity against human L02 cells assessed as inhibition rate at 0.1 uM incubated for 72 hrs by MTT assay relative to control
Assay type: toxicity, cell-based
Property: inhibition at 72 h, 0.1 µM (%)

# Structure notation, Value units, Value measured
rows = [
    ("COc1cc2c(O[C@@H]3O[C@@H]4CO[C@@H](c5cccc(C(F)(F)F)c5)O[C@H]4[C@H](O)[C@H]3O)c3c(c(-c4ccc5c(c4)OCO5)c2cc1OC)C(=O)OC3", "%", 9.53),
    ("COc1cc2c(OCCOCCNC(=O)[C@@H]3CC(F)(F)CN3)c3c(c(-c4ccc5c(c4)OCO5)c2cc1OC)C(=O)OC3", "%", 8.13),
    ("COc1cc2c(O[C@@H]3O[C@@H]4CO[C@@H](C5CCOCC5)O[C@H]4[C@H](O)[C@H]3O)c3c(c(-c4ccc5c(c4)OCO5)c2cc1OC)C(=O)OC3", "%", 6.66),
]

---

Listing of recorded inhibition at 72 h, 0.1 µM by entry.
Test: Antiproliferative activity against human L02 cells assessed as inhibition rate at 0.1 uM incubated for 72 hrs by MTT assay relative to control
Assay type: toxicity, cell-based

# Structure notation, inhibition at 72 h, 0.1 µM
data = [
    ("COc1cc2c(NC(=O)C(F)(F)[C@]3(O)O[C@H](CO)[C@@H](O)[C@H](O)[C@H]3O)c3c(c(-c4ccc5c(c4)OCO5)c2cc1OC)C(=O)OC3", "4.58%"),
    ("COc1cc2c(O[C@@H]3O[C@@H]4CO[C@@H](c5cccs5)O[C@H]4[C@H](O)[C@H]3O)c3c(c(-c4ccc5c(c4)OCO5)c2cc1OC)C(=O)OC3", "7.19%"),
    ("COc1cc2c(O[C@@H]3O[C@@H]4CO[C@@H](c5ccsc5)O[C@H]4[C@H](OC(C)=O)[C@H]3OC(C)=O)c3c(c(-c4ccc5c(c4)OCO5)c2cc1OC)C(=O)OC3", "9.07%"),
    ("COc1cc2c(O[C@@H]3O[C@@H]4CO[C@@H](C5CCCC5)O[C@H]4[C@H](O)[C@H]3O)c3c(c(-c4ccc5c(c4)OCO5)c2cc1OC)C(=O)OC3", "9.37%"),
    ("COc1cc2c(O[C@@H]3O[C@@H]4CO[C@@H](C5CCCCC5)O[C@H]4[C@H](O)[C@H]3O)c3c(c(-c4ccc5c(c4)OCO5)c2cc1OC)C(=O)OC3", "11.5%"),
    ("COc1cc2c(OCCOCCOCCN)c3c(c(-c4ccc5c(c4)OCO5)c2cc1OC)C(=O)OC3", "18.2%"),
]
